All values here come from the supplement of paper PMC10567573.

The entries below are paired with their reported protein stability index.
measurement description: protein stability index of a GFP-peptide fusion (GPS, HEK-293T) (PSI 1-6); higher = more stable;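 further: 24-mer peptide tiles fused after GFP, lentivirally expressed, FACS-sorted into six equal bins by GFP/DsRed ratio, decoded by Illumina sequencing, PSI is the read-weighted mean bin number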
condition description: treatment: DMSO; c terminus: a fixed tail appended
A bare number is all that is needed in reply.

- VIDILPNCVSSVYLYYDPDYSFLS [ATE1]: 3.35
- MANQEAAIQAFLDKCSAPKIWRTP [IQUB]: 3.11
- YKPVVLLQGLSLIVTWFMLLYAQG [SLC19A2]: 2.94
- KALYETELADARRALDDTARERAK [LMNB1]: 5.19

So what's the measured protein stability index for this one? SKGMQDFNYLHTNCFEITLELSCD [CPN1] 2.97

So what's the measured protein stability index for this one? RRHCPLPQATFWGLVTPRSWSCHT [SOAT2] 2.46

So what's the measured protein stability index for this one? GLANGLQLLCPWAPLSGPQALMLP [VENTX] 2.01

So what's the measured protein stability index for this one? VKMFYSFQDKRNLYLIMEFLPGGD [STK38L] 3.11

So what's the measured protein stability index for this one? FHLGLEDILMEEEEGVVGGLSGGA [TFE3] 3.75

So what's the measured protein stability index for this one? SPVTTSPTAATTQNPVLSKLLMAD [LCOR] 4.54

---

measurement description: protein stability index of a GFP-peptide fusion (GPS, HEK-293T) (PSI 1-6); higher = more stable
condition description: treatment: MLN4924 1 uM, 8 h; c terminus: a fixed tail appended
The entries below are paired with their reported protein stability index.
A bare number is all that is needed in reply.

The examples below pair each entry with its known result.
- TTGLQVPSAVRCLQKRGSATSSSN [FSD1]: 3.99
- HKPKNSEELYKEIDGVATTRYSVA [PTPRD]: 4.66
- SPSEKNSSFTWSVPSSGYGAVTAS [SMTNL2]: 3.74
- ERMPPSGAARSFQEVTEPAVVAVD [PXN]: 5.29

Next sequence, please.
So what's the measured protein stability index for this one? MSYFGEHFWGEKNHGFEVLYHSVK [FCHO1] 2.11

---

The entries below are paired with their reported protein stability index.
measurement description: protein stability index of a GFP-peptide fusion (GPS, HEK-293T) (PSI 1-6); higher = more stable
condition description: treatment: MLN4924 1 uM, 8 h; c terminus: a fixed tail appended
A bare number is all that is needed in reply.

The examples below pair each entry with its known result.
- GWSTPPKCRSTISAEKCGPPPPID [CFHR2]: 3.93
- TSIVYATEKKQTKVEFPEARIYEE [KCTD10]: 4.21
- IYHLDGQETPYLVKLPLPAERVTL [DVL3]: 2.34
- QGDLASLRAELQGHHAEKLPAGAG [TNFSF13B]: 4.76
- IPLDLGCTQVTQDGDIPNIPAEEN [FAM189A2]: 5.48

So what's the measured protein stability index for this one? FKHPVIGVHVRRTDKVGTEAAFHP [FUT8] 3.13

So what's the measured protein stability index for this one? SGEFGSVFKCVKRLDGCIYAIKRS [WEE1] 2.65

So what's the measured protein stability index for this one? SLGGCSQDFLLFSPEVESLPVASS [NFE2L1] 2.74

So what's the measured protein stability index for this one? FRGRRDVSGSWERDQQVEAAQRAL [RETREG3] 4.28

So what's the measured protein stability index for this one? PHMAEQTFEQAIQAASRIIRNEQF [CDC25B] 3.39

So what's the measured protein stability index for this one? NKRCKDKKKSILMKQLQQQQHSDK [ISL2] 4.5

---

measurement description: protein stability index of a GFP-peptide fusion (GPS, HEK-293T) (PSI 1-6); higher = more stable
condition description: treatment: DMSO; c terminus: a fixed tail appended
assay endpoint: protein stability index
A bare number is all that is needed in reply.

The examples below pair each entry with its known result.
- FAQRTFDYELLQMLQIVVGVRDSG [PCDHGC5]: 3.01
- PFPAGPLAVAGGPRKTAAPVNALV [ESRRA]: 3.7
- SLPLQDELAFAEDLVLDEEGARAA [ESRRA]: 3.52

So what's the measured protein stability index for this one? GLGRPTPGLSQGPGKETLESALIA [EHMT1] 3.95

So what's the measured protein stability index for this one? MIAFFFIIIYLGPMVLMIIVMCVQ [CDS2] 3.3

So what's the measured protein stability index for this one? LVSPSNNSKEDAFSGTDWMLEKMD [ATF4] 4.66

So what's the measured protein stability index for this one? PEGIQKVAKCLIGVNYPKPMVNHA [CRY1] 2.46

So what's the measured protein stability index for this one? DSKIVVPPLPGKALKRQLPFRGDE [SNX12] 4.35

So what's the measured protein stability index for this one? FRIIDSDHSGFISLDEFRQTWKLF [PPEF2] 2.97

So what's the measured protein stability index for this one? ELNAIMNKNSTDVKGCSMYVALFP [DCTD] 2.71

So what's the measured protein stability index for this one? ICCDKCSVWQHIDCMGIDRQHIPD [KMT2E] 2.7

So what's the measured protein stability index for this one? GMRDADYIAAFLHVLLPVALEFQP [HDAC6] 3.02

So what's the measured protein stability index for this one? IHFIAVAVCLLGVGTMVGADILAG [SLC35F2] 2.8

So what's the measured protein stability index for this one? GLETGDWGGAPKEGSIWRGAQMEK [ZSWIM9] 4.07

So what's the measured protein stability index for this one? DCLQFYVNSTLKELRRLFLVQDLV [RTN1] 2.99

So what's the measured protein stability index for this one? IMSRVNAYQQGVGYQMLGNVVTIG [PHTF1] 2.21

So what's the measured protein stability index for this one? LLLPGIYTVSATAPGYDPETVTVT [CPN1] 2.16

So what's the measured protein stability index for this one? CADVPLLTPSSKEMMSQALKATFS [ETS1] 2.79

So what's the measured protein stability index for this one? PLPWSECPVVRNGSVAVVEAECEK [SLC6A17] 5.44

So what's the measured protein stability index for this one? GLSPEEKEQLSNDRETQEGKPPTA [ELOA2] 5.6

So what's the measured protein stability index for this one? LELSCDKFPPEEELQREWLGNREA [CPN1] 4.95

So what's the measured protein stability index for this one? WEYMHSPSENSKEAEILEVLRHPR [CPOX] 3.99

So what's the measured protein stability index for this one? KYPPDRECIYIIEAAPRQCIELYF [NETO1] 3.13

So what's the measured protein stability index for this one? FKAVLDGLDVLLAQEVRPRRWKLQ [PRAME] 2.25

So what's the measured protein stability index for this one? ARWRRLRLQQLRRLRGLLRVLRGR [FBXO33] 3.52

So what's the measured protein stability index for this one? TPVILVGCQLDLRYADLEAVNRAR [RHOBTB1] 2.46

So what's the measured protein stability index for this one? KSMKPYNYCSAYESFYESTSPECA [NEUROD6] 3.15

So what's the measured protein stability index for this one? LESPIDPQPLSFKEPPLLLGVLHP [APMAP] 3.43

So what's the measured protein stability index for this one? QQENKVLKIELETYKLKCKALQEE [CCDC6] 4.28

---

measurement description: protein stability index of a GFP-peptide fusion (GPS, HEK-293T) (PSI 1-6); higher = more stable
condition description: treatment: DMSO; c terminus: a fixed tail appended
assay endpoint: protein stability index
A bare number is all that is needed in reply.

The examples below pair each entry with its known result.
- YSSQLSQVQSLITNVESQLAEIRC [KRT34]: 3.07
- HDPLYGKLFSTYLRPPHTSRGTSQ [LPCAT4]: 3.27
- VTEHPLELIRVEVEILDLNDNSPS [PCDHGC5]: 2.92
- ESIDFDQGELADQDVDPVHNLIEQ [FBXO33]: 5.51

Next sequence, please.
So what's the measured protein stability index for this one? SWIQLPPMQERRASFYACRLDKHL [KLHL14] 2.32

---

measurement description: protein stability index of a GFP-peptide fusion (GPS, HEK-293T) (PSI 1-6); higher = more stable
condition description: treatment: MLN4924 1 uM, 8 h; c terminus: a fixed tail appended
Assign y to entries whose protein stability index meets or exceeds 4; assign n to the rest.

• ELGGKNPAIIFEDANLDECIPATV [ALDH8A1] = y
• TGITLLRVKFKSQQHRQGRSHHLE [PTGFR] = n
• EELAYLKKNHEEEMKEFSSQLAGQ [KRT15] = y
• DFYRCGYCKNESGSRSNGMWAHSM [ATE1] = n
• PATHLSPALAPVPRNSCITCPQCH [TRIM9] = n
• MCYRVRWEEAAPGRAVEHAMFLGD [MYORG] = n
• NAESSKTWLKGKFTELRLLLDEEE [TRIM14] = y

Quick check, protein stability index >= 4? VRFDGYVIDGATALWCAAGAGHFE [FEM1B] n
